- target-of-assay: PRKACA (human) (UniProt P17612)
- procedure-text: Caliper, Mobility shift assay off-chip
- experimental-conditions: compound 0.1 µM
measurement-kind: inhibition (%)

P: Cn1cc(-c2cnc3ccc4ccc(CS(=O)(=O)NC5CCCCC5)cc4c(=O)c3c2)cn1
Q: Cn1cc(-c2cnc3ccc4ccc(CS(=O)(=O)NCC5CCCCN5)cc4c(=O)c3c2)cn1 (configuration not stated)
[ask] // pick larger inhibition from pair: P vs Q Please identify the chosen entry by its label.
[reply] P
(P: -0.1%, Q: -1.4%)

P: CN(c1ccc2ccc3ncc(-c4cnn(C)c4)cc3c(=O)c2c1)S(=O)(=O)NCc1ccccn1
Q: O=C(CCc1ccc2ccc3ncc(C4CCNCC4)cc3c(=O)c2c1)NCc1ccccn1
R: O=c1c2cc(CS(=O)(=O)NCc3ccccn3)ccc2ccc2ncc(C3CCNCC3)cc12
S: Cn1cc(-c2cnc3ccc4ccc(CS(N)(=O)=O)cc4c(=O)c3c2)cn1
[ask] Put the items in order so that reported inhibition rises from first to last. Answer format: list of labels, ordered as asked.
[reply] P, S, R, Q

---

- target-of-assay: BTK (human) (UniProt Q06187)
- Sequence (Q06187 whole entry, looked up): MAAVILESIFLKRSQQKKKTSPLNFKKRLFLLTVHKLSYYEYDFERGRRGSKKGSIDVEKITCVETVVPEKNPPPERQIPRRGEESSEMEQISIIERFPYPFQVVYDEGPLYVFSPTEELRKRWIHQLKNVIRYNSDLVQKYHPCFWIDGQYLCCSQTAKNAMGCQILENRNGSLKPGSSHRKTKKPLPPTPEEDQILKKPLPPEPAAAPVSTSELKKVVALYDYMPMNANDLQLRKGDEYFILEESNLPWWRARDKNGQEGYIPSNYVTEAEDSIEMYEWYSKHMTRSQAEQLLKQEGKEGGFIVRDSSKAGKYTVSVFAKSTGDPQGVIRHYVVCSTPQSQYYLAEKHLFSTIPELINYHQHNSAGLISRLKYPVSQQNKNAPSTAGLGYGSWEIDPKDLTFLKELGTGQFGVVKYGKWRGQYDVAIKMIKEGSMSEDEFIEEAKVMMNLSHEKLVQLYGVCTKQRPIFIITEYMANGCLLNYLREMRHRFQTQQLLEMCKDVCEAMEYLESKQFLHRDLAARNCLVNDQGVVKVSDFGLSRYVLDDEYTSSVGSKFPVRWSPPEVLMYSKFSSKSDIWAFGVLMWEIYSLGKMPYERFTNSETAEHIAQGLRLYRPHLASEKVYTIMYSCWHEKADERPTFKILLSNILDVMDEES
- procedure-text: Caliper, Mobility shift assay off-chip
- experimental-conditions: compound 0.1 µM
measurement-kind: inhibition (%)

P: O=C(CCc1ccc2ccc3ncc(C4CCNCC4)cc3c(=O)c2c1)NCc1ccccn1
Q: Cn1cc(-c2cnc3ccc4ccc(CS(=O)(=O)NC5CCCCC5)cc4c(=O)c3c2)cn1
R: Cn1cc(-c2cnc3ccc4ccc(CS(=O)(=O)CCc5ccccn5)cc4c(=O)c3c2)cn1
[ask] Please list these in order of increasing inhibition. Thank you! Show the ranking through the labels, in the order asked for.
[reply] R, P, Q

---

- target-of-assay: LCK (human)
- procedure-text: Caliper, Mobility shift assay off-chip
- experimental-conditions: compound 1.0 µM
measurement-kind: inhibition (%)

compound	observed-result
Cn1cc(-c2cnc3ccc4ccc(CS(N)(=O)=O)cc4c(=O)c3c2)cn1	-1.7

P: Cn1cc(-c2cnc3ccc4ccc(CS(=O)(=O)NCC5CCCCN5)cc4c(=O)c3c2)cn1 (stereo not given)
Q: Cn1cc(-c2cnc3ccc4ccc(CS(=O)(=O)CCc5ccccn5)cc4c(=O)c3c2)cn1
R: O=C(CCc1ccc2ccc3ncc(C4CCNCC4)cc3c(=O)c2c1)NCc1ccccn1
S: CN(c1ccc2ccc3ncc(-c4cnn(C)c4)cc3c(=O)c2c1)S(=O)(=O)NCc1ccccn1
[ask] Please give the order of these compounds when sorted by inhibition, largest value leading. Dear reader, please state the labels in the requested order.
[reply] S, Q, P, R
(S: 11.3%, Q: 0.5%, P: -1.2%, R: -2.9%)

---

- target-of-assay: IRAK4 (human) (UniProt Q9NWZ3)
- Sequence (Q9NWZ3 whole entry, looked up): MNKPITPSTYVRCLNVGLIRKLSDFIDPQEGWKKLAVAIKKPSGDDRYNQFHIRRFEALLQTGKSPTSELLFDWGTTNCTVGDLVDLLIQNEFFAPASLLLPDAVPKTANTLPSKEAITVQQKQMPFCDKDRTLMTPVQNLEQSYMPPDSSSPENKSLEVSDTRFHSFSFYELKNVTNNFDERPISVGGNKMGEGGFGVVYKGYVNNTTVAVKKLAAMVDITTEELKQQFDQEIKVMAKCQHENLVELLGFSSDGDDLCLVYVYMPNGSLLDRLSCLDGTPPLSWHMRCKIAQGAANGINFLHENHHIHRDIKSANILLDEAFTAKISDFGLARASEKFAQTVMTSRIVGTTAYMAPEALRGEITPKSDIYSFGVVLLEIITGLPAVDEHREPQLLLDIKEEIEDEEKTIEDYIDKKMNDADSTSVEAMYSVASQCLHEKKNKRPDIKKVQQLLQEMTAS
- procedure-text: Caliper, Mobility shift assay off-chip
- experimental-conditions: compound 0.1 µM
measurement-kind: inhibition (%)

I: Cn1cc(-c2cnc3ccc4ccc(CS(=O)(=O)NCC5CCCCN5)cc4c(=O)c3c2)cn1 (configuration not stated)
II: O=C(CCc1ccc2ccc3ncc(C4CCNCC4)cc3c(=O)c2c1)NCc1ccccn1
[ask] Consider entries I and II . Which has the numerically lower inhibition? Could you answer with the label of the item you picked?
[reply] II

I: O=c1c2cc(CS(=O)(=O)NCc3ccccn3)ccc2ccc2ncc(C3CCNCC3)cc12
II: Cn1cc(-c2cnc3ccc4ccc(CS(=O)(=O)CCc5ccccn5)cc4c(=O)c3c2)cn1
III: Cn1cc(-c2cnc3ccc4ccc(CS(=O)(=O)NC5CCCCC5)cc4c(=O)c3c2)cn1
[ask] Ascending by inhibition, please: list the compounds accordingly. Your reply should list the labels following the order given in the request.
[reply] II, I, III
